- Assay system: UniProt:Q9NYK1
- Sequence (Q9NYK1 27-1049): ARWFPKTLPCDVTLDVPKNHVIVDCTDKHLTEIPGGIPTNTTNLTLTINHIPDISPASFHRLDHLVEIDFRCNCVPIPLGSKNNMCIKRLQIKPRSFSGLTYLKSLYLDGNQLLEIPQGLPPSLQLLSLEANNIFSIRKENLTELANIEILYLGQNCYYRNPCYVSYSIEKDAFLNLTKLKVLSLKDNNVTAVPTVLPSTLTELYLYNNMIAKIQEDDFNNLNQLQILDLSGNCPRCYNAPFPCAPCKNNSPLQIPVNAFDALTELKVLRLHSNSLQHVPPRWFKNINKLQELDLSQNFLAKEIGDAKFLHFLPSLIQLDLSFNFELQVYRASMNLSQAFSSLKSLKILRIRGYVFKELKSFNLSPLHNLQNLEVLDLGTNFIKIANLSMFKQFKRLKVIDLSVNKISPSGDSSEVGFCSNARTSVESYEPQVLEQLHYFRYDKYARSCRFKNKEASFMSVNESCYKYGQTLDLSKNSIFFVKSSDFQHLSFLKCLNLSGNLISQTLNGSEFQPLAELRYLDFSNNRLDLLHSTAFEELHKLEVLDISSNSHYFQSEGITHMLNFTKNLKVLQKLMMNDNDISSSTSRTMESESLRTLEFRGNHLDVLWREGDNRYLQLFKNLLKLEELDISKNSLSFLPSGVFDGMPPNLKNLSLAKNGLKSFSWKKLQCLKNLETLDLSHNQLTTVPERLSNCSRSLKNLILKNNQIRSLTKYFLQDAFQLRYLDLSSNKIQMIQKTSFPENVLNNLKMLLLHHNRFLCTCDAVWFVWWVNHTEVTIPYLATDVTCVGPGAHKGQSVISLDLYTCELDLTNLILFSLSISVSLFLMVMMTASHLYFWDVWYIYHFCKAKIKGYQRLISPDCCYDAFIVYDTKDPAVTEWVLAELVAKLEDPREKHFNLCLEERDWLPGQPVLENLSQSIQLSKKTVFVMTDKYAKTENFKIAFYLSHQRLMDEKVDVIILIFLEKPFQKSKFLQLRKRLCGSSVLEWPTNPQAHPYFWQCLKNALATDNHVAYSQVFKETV
- Run description: HEK293-Blue-hTLR-7 cells assay (SEAP reporter, R848 stimulation)
- Format: cell-based
- Design: host or cells: HEK293 (HEK-Blue)
- Experimental setup: HEK293-Blue-hTLR7 cells, R848, 20 hrs; read-out: HEK/hTLR7 IC50
Property label: pIC50
Please report pIC50 as the negative decimal logarithm of the molar concentration, giving only the number.

// lookup pIC50 for C[C@@H]1CN(c2ccc(C#N)c3ncccc23)C[C@H](CN2CCCN(c3ncc4c(n3)CCNC4)CC2)O1
8.10

// lookup pIC50 for [2H]c1nc2c(C#N)ccc(N3C[C@H](CN4CCN(c5cc6c(cn5)[C@H](C)NCC6)CC4)O[C@H](C)C3)c2nc1[2H] (single isomer, unassigned)
8.40

// lookup pIC50 for C[C@@H]1CN(c2ccc(C#N)c3ncccc23)C[C@H](CN2CCN(c3ccc4c(n3)CNCC4)CC2)O1
7.92
